- target: T1, TAMRA-labeled effector peptide cs221B (5(6)-TAMRA label coupled on resin after synthesis)
- T1 construct: also called TAMRA-cs221B
- T1 peptide: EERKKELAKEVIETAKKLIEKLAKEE
- assay text: fluorescence polarization titration; TAMRA-peptide constant, hinge varied
readout type: pKd
Here pKd is given on a logarithmic scale as minus log10 of the concentration in mol/L.

For record cs221_A114T (designed binder, Point mutant of hinge cs221) MSGEMKEEIRRLAEELRERTKDEEVRELAREAARLAEESDDEEVKEVVKKALEAALKSKDEEVIRLLLLAAVLAAAAARSGSPEEKLEIAKKALELAMKSKDEEVIRLALLAAVLATRSDDEEVLKKVKEALEKAMESKDVEEIRERLREAVEVARAGSGSHHWGSTHHHHHH the listed pKd is 9.70

For record cs221_V111L_A114T (designed binder, Double mutant of hinge cs221; also called cs221-mut) MSGEMKEEIRRLAEELRERTKDEEVRELAREAARLAEESDDEEVKEVVKKALEAALKSKDEEVIRLLLLAAVLAAAAARSGSPEEKLEIAKKALELAMKSKDEEVIRLALLAALLATRSDDEEVLKKVKEALEKAMESKDVEEIRERLREAVEVARAGSGSHHWGSTHHHHHH the listed pKd is 10.00

For record cs221_A73E (designed binder, Point mutant of hinge cs221) MSGEMKEEIRRLAEELRERTKDEEVRELAREAARLAEESDDEEVKEVVKKALEAALKSKDEEVIRLLLLAAVLAAEAARSGSPEEKLEIAKKALELAMKSKDEEVIRLALLAAVLAARSDDEEVLKKVKEALEKAMESKDVEEIRERLREAVEVARAGSGSHHWGSTHHHHHH the listed pKd is 8.31
